Assay: in vivo
Conditions: both, beagle, dog, po
parameterMeasured: MTD at 14 days

Problem: Give the measured MTD at 14 days of CCCCc1nc(Cl)c(C(=O)OCOC(=O)OC(C)C)n1Cc1ccc(-c2ccccc2-c2nnn[nH]2)cc1 [Allisartan] .
Result: > 2500 mg/kg
